The measurements presented in this section are drawn from patent US20220088148A1.

binders and their reported In vitro activity (%) vs. GLP-1, cAMP EC50
# Tested target: human GLP-1 receptor (human, UniProt P43220 24-463)
# Test summary: cell-based or functional assay
Bridges are numbered along the chain shown (N, C = ends). Where no end group is shown, it is not given here. [ ]: non-standard residue; d: D form. Aib = CC(C)(N)C(=O)O
// note: answer is a bare numeric in %

Take a look at these entries with their results.
Binder	Value observed
H[Aib]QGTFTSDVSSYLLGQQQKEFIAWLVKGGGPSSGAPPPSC [triple agonist of SEQ ID NO: 5]	42.1
H[Aib]QGTFTSDVSSYLDGQAAKEFIAWLVKGC [triple agonist of SEQ ID NO: 1]	3.2

Suppose we examine the binder Y[Aib]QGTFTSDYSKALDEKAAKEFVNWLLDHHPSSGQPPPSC (bridge 16-20; ends not checked) [triple agonist of SEQ ID NO: 98] ; what In vitro activity (%) vs. GLP-1, cAMP EC50 value has been reported?
28.1
